Target: TGFb3 (Homo sapiens)
Construct: purchased Abcam
Sequence (P10600 301-412 limits assumed): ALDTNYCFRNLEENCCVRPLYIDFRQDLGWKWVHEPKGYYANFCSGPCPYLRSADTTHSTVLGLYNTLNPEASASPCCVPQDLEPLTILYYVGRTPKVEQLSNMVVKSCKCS
Assay: ELISA binding of ligand to immobilized CLPTM1 peptide fragments
Details: biotinylated peptide immobilized at 1 μM; ligand 100 ng/ml; OD 450-620 measured
For each of the substances below, state its ELISA OD450 TGFb3.

>  <substance>
SGDYYPIIYFNDYWNLQKDYYPINESLASLPLRVSFCPLS (listed as Homo sapiens) [SEQ ID NO: 32]

>  <ELISA OD450 TGFb3>
0.014

$$$$

Would you be so kind as to report ELISA OD450 TGFb3 for each listed record?
1. SGDYYPIIYFNDYWNLQKDYYPINESLA (listed as Homo sapiens) [SEQ ID NO: 40]
2. YPINESLASLPLRVSFCPLSG (listed as Homo sapiens) [SEQ ID NO: 27]
3. ARSAVVAAGGGSSGQVTSNGSIGRDPPAETQPQNPPAQPA (listed as Homo sapiens) [SEQ ID NO: 34]
4. PLDQYVKFDAVSGDYYPIIYFNDYWNLQKDYYPINESLA (listed as Homo sapiens) [SEQ ID NO: 39]
5. 36 (DTLMNLHVYISEHEHFTDFNATSALFWEQHDLVYGDWTSG; listed as Homo sapiens) [compound 36]

0.007
0.068
0.018
0.300
0.095
